Sourced from patent US20250388666A1

Target: T1, CEACAM1 (Sino Biological) (human, UniProt P13688 35-428, limits assumed)
T1 construct: may be the same as CEACAM1-HIS; also called hCEACAM1; biotinylated soluble CEACAM1
T1 sequence: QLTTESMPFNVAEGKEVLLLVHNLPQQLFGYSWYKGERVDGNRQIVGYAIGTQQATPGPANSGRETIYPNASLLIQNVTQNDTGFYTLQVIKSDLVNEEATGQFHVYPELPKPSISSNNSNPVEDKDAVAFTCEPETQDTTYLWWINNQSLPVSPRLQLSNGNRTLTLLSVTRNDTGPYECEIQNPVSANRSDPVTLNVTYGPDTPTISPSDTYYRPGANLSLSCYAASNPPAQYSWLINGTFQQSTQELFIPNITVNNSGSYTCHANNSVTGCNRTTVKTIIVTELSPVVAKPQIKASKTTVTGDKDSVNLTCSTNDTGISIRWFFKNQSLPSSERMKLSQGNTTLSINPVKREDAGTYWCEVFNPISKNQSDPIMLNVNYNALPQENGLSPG
Assay: SPR single-cycle
Catalogue of Kd readings, one per entry.
The reply should contain only the number, in nM.

Take a look at these entries with their results.
{"binder": "He13/L3 (antibody, IgG4, V domains shown, IgG4 S241P, kappa) VH: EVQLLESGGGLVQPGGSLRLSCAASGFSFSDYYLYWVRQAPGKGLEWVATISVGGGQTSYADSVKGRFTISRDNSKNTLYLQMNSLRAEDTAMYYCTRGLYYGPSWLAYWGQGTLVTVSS VL: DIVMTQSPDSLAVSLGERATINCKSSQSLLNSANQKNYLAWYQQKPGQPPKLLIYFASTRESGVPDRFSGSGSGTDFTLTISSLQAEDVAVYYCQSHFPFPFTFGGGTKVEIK", "Kd / nM": 108}
{"binder": "He3/L16 (antibody, IgG4, V domains shown, IgG4 S241P, kappa) VH: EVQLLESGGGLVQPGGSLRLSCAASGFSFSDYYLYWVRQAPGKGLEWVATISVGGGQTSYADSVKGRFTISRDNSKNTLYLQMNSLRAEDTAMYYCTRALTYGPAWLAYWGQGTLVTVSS VL: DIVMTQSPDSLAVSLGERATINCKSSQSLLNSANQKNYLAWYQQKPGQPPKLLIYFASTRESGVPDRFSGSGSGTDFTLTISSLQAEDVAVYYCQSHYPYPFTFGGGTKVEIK", "Kd / nM": 72}

Now take the following binder into account.
Look up Kd: He9/L16 (antibody, IgG4, V domains shown, IgG4 S241P, kappa) VH: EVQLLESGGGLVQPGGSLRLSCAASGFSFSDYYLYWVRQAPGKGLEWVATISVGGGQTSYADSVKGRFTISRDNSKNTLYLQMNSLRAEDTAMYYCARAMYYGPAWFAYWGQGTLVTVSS VL: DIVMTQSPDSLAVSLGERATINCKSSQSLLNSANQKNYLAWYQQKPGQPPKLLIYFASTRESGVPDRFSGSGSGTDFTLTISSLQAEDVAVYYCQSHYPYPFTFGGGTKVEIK
32
